Values of pIC50 reported for Mu-type opioid receptor (Cavia porcellus) appear below.
pIC50: −log10 of the molar value.
property: pIC50

>  <compound>
CC1(C)SSC[C@H](NC(=O)[C@H]2NCC[C@H]2c2ccc(O)cc2)C(=O)N[C@@H](Cc2ccccc2)C(=O)N[C@@H]1C(=O)O

>  <assay-target>
Mu-type opioid receptor (Cavia porcellus)
Sequence (P97266 whole entry): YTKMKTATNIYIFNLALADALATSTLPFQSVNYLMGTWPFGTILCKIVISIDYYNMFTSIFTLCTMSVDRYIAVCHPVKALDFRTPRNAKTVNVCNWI

>  <property>
pIC50

>  <reading-qualifier>
=

>  <numeric-result>
4.92

$$$$
>  <compound>
CC1(C)SSC[C@H](NC(=O)[C@@]2(N)Cc3ccc(O)cc3C2)C(=O)N[C@@H](Cc2ccccc2)C(=O)N[C@@H]1C(=O)O

>  <assay-target>
Mu-type opioid receptor (Cavia porcellus)

>  <property>
pIC50

>  <reading-qualifier>
<

>  <numeric-result>
5.00

$$$$
>  <compound>
CC1(C)SSC[C@H](NC(=O)[C@H]2NCC[C@@H]2c2ccc(O)cc2)C(=O)N[C@@H](Cc2ccccc2)C(=O)N[C@@H]1C(=O)O

>  <assay-target>
Mu-type opioid receptor (Cavia porcellus)

>  <property>
pIC50

>  <reading-qualifier>
=

>  <numeric-result>
6.11

$$$$
>  <compound>
CC1(C)SSC[C@H](NC(=O)[C@]2(N)CCc3cc(O)ccc3C2)C(=O)N[C@@H](Cc2ccccc2)C(=O)N[C@@H]1C(=O)O

>  <assay-target>
Mu-type opioid receptor (Cavia porcellus)

>  <property>
pIC50

>  <reading-qualifier>
=

>  <numeric-result>
5.74

$$$$
>  <compound>
CC1(C)SSC[C@H](NC(=O)C2(N)CCc3cc(O)ccc3C2)C(=O)N[C@@H](Cc2ccccc2)C(=O)N[C@@H]1C(=O)O (single isomer, unassigned)

>  <assay-target>
Mu-type opioid receptor (Cavia porcellus)

>  <property>
pIC50

>  <reading-qualifier>
=

>  <numeric-result>
5.37

$$$$

====

Target: UniProt P97266
pKi: −log10 of the molar value. Peptide text beside a SMILES is read from it.
Overview of recorded pKi for various compounds
property: pKi

>  <compound>
CC1(C)SSC[C@H](NC(=O)[C@@H]2Cc3ccc(O)cc3CN2)C(=O)N[C@@H](Cc2ccccc2)C(=O)N[C@@H]1C(=O)O (HELM PEPTIDE1{[O=C([C@@H]1Cc2ccc(O)cc2CN1)[*:2]].C.F.[Pen]}$PEPTIDE1,PEPTIDE1,2:R3-4:R3$$$V2.0)

>  <property>
pKi

>  <result>
< 5.00

$$$$
>  <compound>
CC1(C)SSC[C@H](NC(=O)C2(N)Cc3ccc(O)cc3C2)C(=O)N[C@@H](Cc2ccccc2)C(=O)N[C@@H]1C(=O)O (single isomer, unassigned)

>  <property>
pKi

>  <result>
< 5.00

$$$$
>  <compound>
CC1(C)SSC[C@H](NC(=O)[C@@](C)(N)Cc2ccc(O)cc2)C(=O)N[C@@H](Cc2ccccc2)C(=O)N[C@@H]1C(=O)O (HELM PEPTIDE1{[C[C@](N)(Cc1ccc(O)cc1)C(=O)[*:2]].C.F.[Pen]}$PEPTIDE1,PEPTIDE1,2:R3-4:R3$$$V2.0)

>  <property>
pKi

>  <result>
< 5.00

$$$$
